- target-of-assay: CB1 (Mus musculus)
- Sequence (P47746 whole entry): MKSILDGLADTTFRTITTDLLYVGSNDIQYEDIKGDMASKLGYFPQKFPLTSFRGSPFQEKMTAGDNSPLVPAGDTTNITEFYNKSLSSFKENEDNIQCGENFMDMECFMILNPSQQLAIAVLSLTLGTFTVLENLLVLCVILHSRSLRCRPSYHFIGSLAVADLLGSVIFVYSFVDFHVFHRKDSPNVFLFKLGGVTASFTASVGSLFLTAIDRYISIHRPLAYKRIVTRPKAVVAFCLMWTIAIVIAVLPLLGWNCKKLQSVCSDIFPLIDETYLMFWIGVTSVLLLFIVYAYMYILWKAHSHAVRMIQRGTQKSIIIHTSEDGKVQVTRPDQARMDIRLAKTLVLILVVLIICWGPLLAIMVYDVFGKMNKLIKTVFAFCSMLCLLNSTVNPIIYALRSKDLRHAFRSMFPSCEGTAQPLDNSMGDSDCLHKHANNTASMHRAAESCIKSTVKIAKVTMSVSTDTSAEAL
- assay-overview: [35S]GTPγS binding to CB1 in C57 mouse cerebellum membranes
- condition-set: agonist, mouse cerebellum, mean ± S.E.M.
pEC50: −log10 of the molar value.

{"chemical-smiles": "CCCCCCC(C)(C)c1ccc([C@@H]2C[C@H](O)CC[C@H]2CCCO)c(O)c1", "pEC50": 7.20}

====

- target-of-assay: hCB1 WT receptor (Homo sapiens)
- Sequence (P21554 whole entry): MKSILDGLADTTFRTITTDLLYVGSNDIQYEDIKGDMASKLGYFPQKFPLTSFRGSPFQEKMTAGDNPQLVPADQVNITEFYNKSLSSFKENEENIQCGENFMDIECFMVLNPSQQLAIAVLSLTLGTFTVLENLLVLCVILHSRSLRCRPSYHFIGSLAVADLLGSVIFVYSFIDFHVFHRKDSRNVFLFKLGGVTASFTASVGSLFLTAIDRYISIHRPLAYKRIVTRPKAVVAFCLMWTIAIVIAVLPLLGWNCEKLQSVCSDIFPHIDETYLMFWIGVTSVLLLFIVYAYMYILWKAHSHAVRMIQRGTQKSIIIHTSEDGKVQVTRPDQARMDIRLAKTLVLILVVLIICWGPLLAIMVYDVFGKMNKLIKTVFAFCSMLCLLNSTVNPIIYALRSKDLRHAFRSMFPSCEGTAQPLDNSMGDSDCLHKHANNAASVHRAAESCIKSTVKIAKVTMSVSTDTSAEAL
attribute-measured: Ki (nM)

{"chemical-smiles": "Cc1c(C(=O)NN2CCCCC2)nn(-c2ccc(Cl)cc2Cl)c1-c1ccc(C#CCCO[N+](=O)[O-])cc1", "target-of-assay": "hCB1 WT receptor (Homo sapiens)", "attribute-measured": "Ki", "assay-result": 3.4}
